Method: Single dose 300 mg / 450 mg pharmacokinetic, safety and tolerability study in healthy male and female subjects
Details: both, human, plasma, po, 450 mg, t½, single oral 450 mg DOV 21,947 HCl IR; arithmetic mean, N = 10
Reported metric: half-life (h)

Compound: O=C1NCC2(c3ccc(Cl)c(Cl)c3)CC12 (centres unmarked) [EB-10101]
Reported metric: half-life
Measured number: 32.6
//
Compound: Clc1ccc([C@]23CNC[C@H]2C3)cc1Cl [amitifadine]
Reported metric: half-life
Measured number: 3.82

====

Method: 13-week mouse toxicity and toxicokinetic study
Details: male, Crl:CD-1(ICR) BR, in vivo, po, 100 mg/kg/day, AUC0-24

Structure smiles string: Clc1ccc([C@]23CNC[C@H]2C3)cc1Cl
AUC(0-t) [ng·h/mL]: 24100
